tested on: Zika virus NS2B-NS3 protease (unlinked complex); experiment: Primary screen GU Rhodamine qHTS for Zika virus inhibitors: Unlinked NS2B-NS3 protease assay (AID 1347159); conditions: Recombinant ZIKV NS2B-NS3 protease, Rhodamine110 substrate fluorescence; series mostly up to 107 µM; further: nearly all actives have a fitted effect of over 60% in size
Records with an inconclusive call do not appear. Activity calls are given as the source filed them. The call rests on the fitted dose curve; in most records, active means well fitted inhibition curve with a large enough effect; inconclusive means small, poorly fitted or top-dose-only effect; inactive means no such curve, though single readings can be large or run the other way.
The reply should name one outcome from Yes for active, No for inactive

Past entries and their recorded results:
In [3]: df
Out[3]:
                                   compound  category
0  OC(CNCCc1c[nH]c2ccccc12)Cn1c2ccccc2c2ccccc21 (stereo not given)        No
1  COc1ccc2c(c1)CN(C(=O)CCN1CCC(Cc3ccccc3)CC1)CCS2        No
2  CN(CC(=O)N(Cc1ccc(C2CCCCC2)cc1)c1ccc(C(=O)O)cc1)S(=O)(=O)c1c(F)c(F)c(F)c(F)c1F       Yes
3   NC(=Nc1ccc(CCNCc2cccc(Cl)c2)cc1)c1cccs1        No
4  CCN1CCN(Cc2ccc(-c3cc4c(NC(C)c5ccccc5)ncnc4[nH]3)cc2)CC1 (stereo not given)        No

Please let me know the test result on file for O=C(Nc1cccc(C(F)(F)F)c1)c1ccccc1NCc1ccncc1 . No

Please let me know the test result on file for C[C@@H](c1nc(-c2ccc(C#N)cc2)cs1)[C@](O)(Cn1cncn1)c1cc(F)ccc1F . No

Please let me know the test result on file for COc1ccc2c3ccnc4ccc(=O)n(c2c1)c43 . No

Please let me know the test result on file for O=C(Nc1ncc(SCCN2CCCC2)s1)C1(c2ccc(S(=O)(=O)C3CC3)cc2)CC1C1CCCCC1 (stereo not given) . No

Please let me know the test result on file for CC1CCC(n2c3cnccc3c3cnc(Nc4ccc5c(n4)CCN(C(=O)CO)C5)nc32)CC1 (stereo not given) . No
